Exercise: state measured MFI for each of the binders provided.
Biological target: T1, Trop-2 on Trop-2 expressing tumor cells (human, UniProt P09758 27-323)
T1 construct: Endogenous Trop-2 of human tumour cell lines; also called Trop-2 positive tumor cells; A431 (Trop-2+++)
T1 sequence: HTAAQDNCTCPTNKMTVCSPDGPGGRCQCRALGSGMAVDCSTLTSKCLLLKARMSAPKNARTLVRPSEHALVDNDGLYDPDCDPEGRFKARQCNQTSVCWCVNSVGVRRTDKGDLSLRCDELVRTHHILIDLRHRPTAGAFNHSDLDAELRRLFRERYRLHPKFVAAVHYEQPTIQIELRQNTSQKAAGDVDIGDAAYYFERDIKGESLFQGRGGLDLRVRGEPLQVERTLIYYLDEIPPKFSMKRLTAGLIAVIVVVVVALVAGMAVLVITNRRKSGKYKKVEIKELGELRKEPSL
Assay: flow cytometry, A431 cells (Trop-2+++), 0.5 ug antibody per 200,000 cells
Provide a numeric answer; units are not to be included.

Enquiry: Data request, read-out MFI, for h7E6_WT antibody (human IgG1) (antibody, V domains shown, Human IgG1) VH: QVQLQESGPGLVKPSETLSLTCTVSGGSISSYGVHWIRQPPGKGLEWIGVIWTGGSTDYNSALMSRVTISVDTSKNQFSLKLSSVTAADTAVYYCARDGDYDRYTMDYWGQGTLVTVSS VL: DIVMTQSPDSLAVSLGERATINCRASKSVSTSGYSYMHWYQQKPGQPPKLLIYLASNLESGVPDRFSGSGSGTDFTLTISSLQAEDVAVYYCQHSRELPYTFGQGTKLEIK
Return: 102000

Enquiry: Data request, read-out MFI, for h7E6_L antibody (human IgG1) (antibody, V domains shown, Human IgG1) VH: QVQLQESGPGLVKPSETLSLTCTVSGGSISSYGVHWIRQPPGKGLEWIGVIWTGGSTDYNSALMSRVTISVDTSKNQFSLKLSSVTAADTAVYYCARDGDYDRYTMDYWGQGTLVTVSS VL: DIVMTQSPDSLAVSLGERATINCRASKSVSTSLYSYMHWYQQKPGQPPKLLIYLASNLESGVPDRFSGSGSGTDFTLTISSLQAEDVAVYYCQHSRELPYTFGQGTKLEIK
Return: 110000

Enquiry: Data request, read-out MFI, for h7E6_SVGN antibody (human IgG1) (antibody, V domains shown, Human IgG1) VH: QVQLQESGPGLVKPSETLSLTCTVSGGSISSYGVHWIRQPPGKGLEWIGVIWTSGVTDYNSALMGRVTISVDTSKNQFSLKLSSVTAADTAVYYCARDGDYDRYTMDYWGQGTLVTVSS VL: DIVMTQSPDSLAVSLGERATINCRASKSVSTSNYSYMHWYQQKPGQPPKLLIYLASNLESGVPDRFSGSGSGTDFTLTISSLQAEDVAVYYCQHSRELPYTFGQGTKLEIK
Return: 128000
